Assay: Agilent ZORBAX 300 SB-C18, 150 × 1 mm, 3.5 µm; A: water + 0.01% heptafluorobutyric acid; B: acetonitrile + 0.01% heptafluorobutyric acid; gradient (min/%B) 0/0 100/90
Details: stereoisomer not certain
parameter measured: LC retention time (min)
State just the number; it will be interpreted in min.

// solved cases for LC retention time follow
{"columns": ["compound", "LC retention time [min]"],
 "data": [
  ["CCCCCCCCN1C2=C(C(=O)CC(C)(C)C2)C(c2ccccc2)C2=C1CC(C)(C)CC2=O", 20.9],
  ["Nc1cccc(CO)c1", 6.28],
  ["O=C(O)CNc1ccccc1C(=O)O", 9.2],
  ["NCCc1ccccn1", 6.83],
  ["NCCN", 5.99],
  ["O=C1c2ccccc2-c2nc3ccccc3cc21", 14.2],
  ["Cn1c2c(c(=O)[nH]c1=O)C(c1ccccc1)C1=C(N2)c2ccccc2C1=O (stereo not drawn)", 10.6],
  ["CN(C)CCCN1CCC(O)C2CCCCC21 (stereo not drawn)", 7.19]
]}

Requested read-out: LC retention time. Entry: O=C(NCc1ccc(-n2cccc2)cc1)C(c1ccccc1)c1ccccc1
16.6

Requested read-out: LC retention time. Entry: CCCCC(CC)CNCC(CC)CCCC (stereo not drawn)
14.2

Requested read-out: LC retention time. Entry: CCOC(CN1CCCCC1)OCC
8.11

Requested read-out: LC retention time. Entry: CCc1ccncc1
6.94

Requested read-out: LC retention time. Entry: O=C(NCCN1CCN(Cc2ccccc2)CC1)C(=O)Nc1ccccc1
9.75
